Each entry below carries its recorded Activity.
experiment: Cytotoxicity against human IMR32 cells assessed as cell viability after 24 to 48 hrs by MTT assay; assay type: functional, IMR-32
All answers are understood in µM, so give the number only.

Q: Which measured Activity value corresponds to `COc1ccc(-c2cc(C(=O)N3CCN(C(=O)c4cccnc4Nc4cc(OC)c(OC)c(OC)c4)CC3)nc3cc(-c4ccccc4)nn23)cc1` ?
Result: 6.62

Q: Again, but for `COc1ccc(Nc2ncccc2C(=O)N2CCN(C(=O)c3cc(-c4ccc(F)cc4)n4nc(-c5ccccc5)cc4n3)CC2)cc1OC`
Result: 5.25

Q: Again, but for `COc1ccc(Nc2ncccc2C(=O)N2CCN(C(=O)c3cc(-c4ccc(F)cc4)n4nc(-c5ccccc5)cc4n3)CC2)cc1`
Result: 5.37

Q: Again, but for `O=C(c1cc(-c2ccc(F)cc2)n2nc(-c3ccccc3)cc2n1)N1CCN(C(=O)c2cccnc2Nc2ccc(F)cc2)CC1`
Result: 5.62

Q: Again, but for `COc1ccc(-c2cc(C(=O)N3CCN(C(=O)c4cccnc4Nc4ccc(F)cc4)CC3)nc3cc(-c4ccccc4)nn23)cc1`
Result: 5.87

Q: Again, but for `O=C(c1cc(-c2ccc(F)cc2)n2nc(-c3ccccc3)cc2n1)N1CCN(C(=O)c2cccnc2Nc2ccccc2)CC1`
Result: 4.65

Q: Again, but for `COc1ccc(Nc2ncccc2C(=O)N2CCN(C(=O)c3cc(-c4ccc(OC)c(OC)c4)n4nc(-c5ccccc5)cc4n3)CC2)cc1`
Result: 5.87

----------
tested on: HeLa; assay: Cytotoxicity against human HeLa cells assessed as cell viability after 24 to 48 hrs by MTT assay; format: functional
QUANTITY: Activity (µM)
All answers are understood in µM, so give the number only.

Solved entries (count: 3):
SMILES STR	MEASURED NUMBER
COc1ccc(Nc2ncccc2C(=O)N2CCN(C(=O)c3cc(-c4ccc(OC)cc4)n4nc(-c5ccccc5)cc4n3)CC2)cc1	3.72
O=C(c1cc(-c2ccc(Cl)c(Cl)c2)n2nc(-c3ccccc3)cc2n1)N1CCN(C(=O)c2cccnc2Nc2ccc(F)cc2)CC1	4.27
COc1cc(Nc2ncccc2C(=O)N2CCN(C(=O)c3cc(-c4ccc(F)cc4)n4nc(-c5ccccc5)cc4n3)CC2)cc(OC)c1OC	4.31

Kindly review the next molecule as well.
Q: Which measured Activity value corresponds to `COc1ccc(Nc2ncccc2C(=O)N2CCN(C(=O)c3cc(-c4ccc(OC)c(OC)c4)n4nc(-c5ccccc5)cc4n3)CC2)cc1OC` ?
Result: 5.7

----------
system: HeLa; experiment: Cytotoxicity against human HeLa cells assessed as cell viability after 24 to 48 hrs by MTT assay; assay type: functional
Each entry below carries its recorded Activity.
All answers are understood in µM, so give the number only.

SMILES STR	MEASURED NUMBER
COc1ccc(Nc2ncccc2C(=O)N2CCN(C(=O)c3cc(-c4ccc(Cl)c(Cl)c4)n4nc(-c5ccccc5)cc4n3)CC2)cc1	2.64
COc1cccc2c1C(=O)c1c(O)c3c(c(O)c1C2=O)C[C@@](O)(C(=O)CO)C[C@@H]3O[C@H]1C[C@H](N)[C@H](O)[C@H](C)O1	1.25

Q: Which measured Activity value corresponds to `COc1ccc(Nc2ncccc2C(=O)N2CCN(C(=O)c3cc(-c4ccc(OC)c(OC)c4)n4nc(-c5ccccc5)cc4n3)CC2)cc1` ?
Result: 4.62

These entries and their values trace back to ChEMBL document CHEMBL3784968.
